# Lookup of reported Percent Effect keyed by entry
# Test system: Wolbachia pipientis
# Test Description: Anti-Wolbachia Cell-Based Screen
# Format: functional
# Design: scale not given: in the data most compounds retested in dose-response had high values
# Run Parameters: 5 µM
About 13,000 (27%) of roughly 48,000 compounds showed an effect of 50% or more. Some of the results follow.
Express the result in % but write the number alone.

O=C(c1ccco1)N1C(CO)[C@]2(O)CC[C@H]1CC2 (stereo partly drawn) : 85.33
O=C(O)c1csc(S(=O)(=O)N2CCCc3cccc(OC(F)F)c32)c1 : -29.54
CC(C)c1nn(CC(=O)N2CCCC2)c(=O)c2c1cnn2C(C)(C)C : 46.37
COCc1ccccc1NC(=O)[C@@H]1CCCN1C(=O)c1ccco1 : 6.983
Cc1ccc(CN(CCN(C)C)Cc2ncc[nH]2)s1 : -6.049
COC(=O)c1sccc1NC(=O)C1CCCN1C(=O)c1ccco1 (stereo not drawn) : -17.58
Cc1cc(Cc2ccc(F)cc2)cc(C2CCCNC2)n1 (stereo not drawn) : 73.78
Cc1noc2ncnc(NC(CC(C)(C)C)c3cccnc3)c12 (stereo not drawn) : -8.396

In: Give the reported Percent Effect for this molecule. CCN(CC)CC(=O)N1CCCCC1c1nc(C)cs1 (stereo not drawn)
Out: 131.2

In: Give the reported Percent Effect for this molecule. `O=C(c1ccco1)N1CC[C@@H](N2CCOCC2)[C@@H]1Cc1ccccc1`
Out: -19.81

In: Give the reported Percent Effect for this molecule. `Cc1ccc2cc(CN(C)Cc3ccncn3)c(=O)[nH]c2c1`
Out: -11.97

In: Give the reported Percent Effect for this molecule. O=C(c1ccc2c(c1)OCCCO2)N1CCCCC1C1OCCO1 (stereo not drawn)
Out: -8.172

In: Give the reported Percent Effect for this molecule. CC1CCCCN1C(=O)c1ccc2c(c1)OCCCO2 (stereo not drawn)
Out: -1.264

In: Give the reported Percent Effect for this molecule. O=C(NCC1CC1)C1CN(C(=O)c2ccco2)CC12CCOCC2 (stereo not drawn)
Out: -3.478

In: Give the reported Percent Effect for this molecule. `Cc1ccc(-n2cc(CN3CCN(C)[C@@H]4CS(=O)(=O)C[C@@H]43)cn2)cc1`
Out: 6.274

In: Give the reported Percent Effect for this molecule. `Cc1cc(C)cc(CNCCS(=O)(=O)N2CCOCC2)c1`
Out: -11.28

In: Give the reported Percent Effect for this molecule. Cc1csc(C2CCCCN2C(=O)CN(C)C(C)C)n1 (stereo not drawn)
Out: 91.31

In: Give the reported Percent Effect for this molecule. COCC1N(C(=O)c2ccc3c(c2)OCCCO3)[C@H]2CC[C@]1(O)CC2 (stereo partly drawn)
Out: 106.3

In: Give the reported Percent Effect for this molecule. `O=C(c1[nH]nc(C2CC2)c1Cl)N1CCN(C2CC2)C(=O)C1`
Out: -4.23

In: Give the reported Percent Effect for this molecule. CC(Oc1cccc(Cl)c1)C(=O)Nc1cnn(CCN(C)C)c1 (stereo not drawn)
Out: -6.613

In: Give the reported Percent Effect for this molecule. `CC(=O)N[C@H]1C[C@@H](c2nc(-c3ccc4c(c3)OCO4)no2)N(C)C1`
Out: -4.728

In: Give the reported Percent Effect for this molecule. Cc1csc(C2CCCCN2C(=O)CN(C)C2CC2)n1 (stereo not drawn)
Out: 3.375

In: Give the reported Percent Effect for this molecule. COCC1N(C(=O)c2ccco2)[C@H]2CC[C@]1(O)CC2 (stereo partly drawn)
Out: 106.6

Taken from ChEMBL document CHEMBL3988442.
